Ref: the NIST ThermoML archive (doi:10.1016/j.jct.2009.07.006)

Catalogue of mass density readings, one per entry.
# ASSAY CONDITIONS: 298.15 K; 29490 kPa; Liquid; Vibrating tube method
Could you give me the number in kg/m3? Just the number is fine.

Take a look at these entries with their results.
SMI	QUANTITATIVE READOUT
Cc1ccncc1	967.4
Cc1cccnc1	969.6
c1ccncc1	996.3

The record that follows has no mass density shown yet.
I have this molecule here, "Cc1ccccn1" , and I need its recorded mass density.
958.3

====

# ASSAY CONDITIONS: 318.15 K; 2130 kPa; Liquid; Vibrating tube method
REPORTED PROPERTY: mass density (kg/m3)
Could you give me the number in kg/m3? Just the number is fine.

SMI	mass density, kg/m3
c1ccncc1	959.3

I have this compound here, "Cc1cccnc1" , and I need its recorded mass density.
935.3

I have this compound here, "Cc1ccncc1" , and I need its recorded mass density.
933.3

I have this compound here, "Cc1ccccn1" , and I need its recorded mass density.
922.8
